- Test system: Vaccinia virus
- Procedure details: Antiviral activity against Vaccinia virus in E6SM cells assessed as reduction of virus-induced cytopathogenicity
- Assay type: functional, organism-based
- Settings: Orthopoxvirus vaccinia
Test readout: EC50 (µg/mL)
Write the answer as a number in µg/mL, unit excluded.

Molecule: C[Si](C)(C)C#Cc1cn([C@@H]2O[C@H](CO)[C@@H](O)[C@@H]2O)c(=O)[nH]c1=O
Unit abbreviation: µg/mL
Quantitative readout: 7
//
Molecule: C#Cc1cn([C@H]2C[C@H](O)[C@@H](CO)O2)c(=O)[nH]c1=O
Unit abbreviation: µg/mL
Quantitative readout: 0.1
//
Molecule: NC(=O)c1ncn([C@@H]2O[C@H](CO)[C@@H](O)[C@H]2O)n1 [RIBAVIRIN]
Unit abbreviation: µg/mL
Quantitative readout: 20
//
Molecule: O=c1[nH]c(=O)n([C@H]2C[C@H](O)[C@@H](CO)O2)cc1C#CI
Unit abbreviation: µg/mL
Quantitative readout: 0.2
//
Molecule: O=c1[nH]c(=O)n([C@H]2C[C@H](O)[C@@H](CO)O2)cc1/C=C/Br [BRIVUDINE]
Unit abbreviation: µg/mL
Quantitative readout: 0.2

Continue with the next molecule.
Fill in the blank: the reported EC50 of C[Si](C)(C)C#Cc1cn([C@H]2C[C@H](O)[C@@H](CO)O2)c(=O)[nH]c1=O is ____. 0.2
